Data origin, for the record: PubChem BioAssay AID1376

Quick reference: inhibition of the listed items.
target: Bifunctional protein GlmU (Mycobacterium tuberculosis (strain ATCC 25618 / H37Rv)) (UniProt P9WMN3); assay: inhibition of mycobacterial GlmU enzyme – biochemical, glucosamine-1-phosphate acetyltransferase (AID 1376);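 note: 0% = complete reaction with vehicle and 100% = reaction without substrate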; details: M. tuberculosis GlmU acetyltransferase enzyme assay; hits give high values;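 tested at 30 µM in the primary screen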
Sequence (P9WMN3 whole entry, looked up): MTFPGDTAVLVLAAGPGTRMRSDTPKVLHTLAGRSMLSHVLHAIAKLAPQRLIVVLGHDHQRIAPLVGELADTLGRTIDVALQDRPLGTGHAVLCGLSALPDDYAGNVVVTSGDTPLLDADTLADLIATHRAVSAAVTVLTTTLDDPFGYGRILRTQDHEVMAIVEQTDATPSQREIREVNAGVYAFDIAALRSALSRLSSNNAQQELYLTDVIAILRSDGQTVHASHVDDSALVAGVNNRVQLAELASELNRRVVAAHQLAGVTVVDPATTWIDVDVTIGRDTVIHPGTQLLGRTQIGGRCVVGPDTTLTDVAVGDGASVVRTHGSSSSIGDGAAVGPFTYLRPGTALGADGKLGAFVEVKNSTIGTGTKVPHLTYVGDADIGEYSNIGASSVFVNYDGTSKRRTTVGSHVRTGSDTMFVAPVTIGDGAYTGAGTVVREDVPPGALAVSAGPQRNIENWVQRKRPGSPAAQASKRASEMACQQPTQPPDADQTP
About 530 (0.24%) of roughly 220,000 compounds were called active. The full list was thinned out, with actives kept by preference. Entries with a potency or affinity are not part of this list.
measured_endpoint: inhibition (%)

• CCc1c(O)nc(SCC(=O)NCc2ccco2)[nH]c1=O = -0.2
• COc1ccc(C(=O)N2CCCC(c3nc(-c4cccs4)no3)C2)cc1OC (stereo unspecified) = 13.1
• Cc1cc(/C=N/Nc2ccc([N+](=O)[O-])cn2)c(C)n1-c1ccccc1 = -0.82
• CC1=NN(C(=O)CSCc2ccccc2)C(O)(c2ccc(Cl)cc2)C1 (stereo unspecified) = 0.2
• CCC(C)(NC(=O)c1ccccn1)C(=O)NC1CCCC1 (stereo unspecified) = -1.49
• COc1ccc(C(=O)N2CCCC(c3nc(-c4cccs4)no3)C2)cc1 (stereo unspecified) = -2.88
• CCC(C)(NC(=O)CNC(C)=O)C(=O)NC1CCCCC1 (stereo unspecified) = 17.3
• O=C(c1ccccc1)N1CCN(Cc2c[nH]c3ccccc23)CC1 = -4.61
• COc1ccc(NC(=O)/C(Cl)=C(/Cl)S(=O)Cc2ccc(Cl)cc2)cn1 (stereo unspecified) = 11.8
• Cc1ccc(NC(=O)COC(=O)Cn2cnc3ccccc32)c([N+](=O)[O-])c1 = -0.59
• COc1ccc2[nH]c3c(N4CCc5ccccc5C4)ncnc3c2c1 = 0.43

###

Quick reference: inhibition of the listed items.
target: Bifunctional protein GlmU (Mycobacterium tuberculosis (strain ATCC 25618 / H37Rv)) (UniProt P9WMN3); assay: inhibition of mycobacterial GlmU enzyme – biochemical, glucosamine-1-phosphate acetyltransferase (AID 1376);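 note: 0% = complete reaction with vehicle and 100% = reaction without substrate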; details: M. tuberculosis GlmU acetyltransferase enzyme assay; hits give high values;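 tested at 30 µM in the primary screen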
Hit rate of the full screen: of about 220,000 compounds, about 530 (0.24%) were called active. The list comes from a sample in which actives are over-represented; it also holds close analogues and randomly drawn compounds. Entries with a potency or affinity are not part of this list.
measured_endpoint: inhibition (%)

* COc1ccc(S(=O)(=O)NNC(=O)c2csc(-n3nc(C)cc3C(F)(F)F)n2)cc1OC | 2.2
* O=S1(=O)CCN(Cc2cccc(Cl)c2)CC1 | -7.45
* C/C(=N\NC(=O)NC1CCCCC1)C1CCCCC1 | 5.48
* CCn1c(SCC(=O)N/N=C/C=C/c2ccco2)nc2ccccc21 | -1.16
* Cc1ccccc1NC(=S)N(CCN(C)C)C(C)c1ccco1 (stereo not given) | -1.1
* Cc1ccc(S(=O)(=O)N2CC(O)CC2C(=O)OCc2nc3sc(C)c(C)c3c(=O)[nH]2)cc1 (stereo not given) | 1.13
* Cc1cc(C)nc(NN=C2CCCC2)n1 | -4.71
* CN(C)CCCOC(=O)c1cc2ccccc2o1 | -2.64
* O=C(O)c1nc2ccccc2nc1C(=O)O | -0.04
* C=CCOc1c(CNc2cccc(C(=O)O)c2)cccc1OC | -2.58
* O=c1cc(O)c2c(=O)n(-c3ccccc3)c3ccccc3c2o1 | 0.8
* Cn1c(SCC(=O)N/N=C/C=C\c2ccco2)nc2ccccc21 | -4.83
* O=C(Nc1ccc(Cl)cc1)c1ccc2nsnc2c1 | 4.02
* COC(=O)Cc1c(C)c2ccc(OCc3nn[nH]n3)c(C)c2oc1=O | 0.72
* CN(C)S(=O)(=O)c1ccc(=S)[nH]c1 | 1.27
* Cn1c(SCC(=O)N/N=C/C=C/c2ccco2)nc2ccccc21 | 13
* C=CCOc1c(CNc2cccc(C(=O)O)c2)cccc1OCC | 17.6
* O=C(Nc1ccccc1)c1ccc2nsnc2c1 | 19.3
* CC(=O)Oc1cccc(N2C(=O)c3ccccc3C2=O)c1 | -6.78
* CSc1cccc(NC(=O)C2CCCN2S(=O)(=O)c2ccc(Br)s2)c1 (stereo not given) | 7.56
* O=C1CN=C(c2ccc(F)cc2)c2oc3ccccc3c2N1 | 0.53
* O=C(Nc1ccc(F)cc1)c1ccc2nsnc2c1 | -5.81
* COc1cc(/C=C2/SC(=Nc3ccc(O)cc3)NC2=O)cc(OC)c1O | 7
* O=C1CN=C(c2ccc(Cl)cc2)c2oc3ccccc3c2N1 | 2.87
* COc1ccc(NC2(C#N)CCCCC2)cc1 | -1.99

###

target: Bifunctional protein GlmU (Mycobacterium tuberculosis (strain ATCC 25618 / H37Rv)) (UniProt P9WMN3); experiment: inhibition of mycobacterial GlmU enzyme – biochemical, glucosamine-1-phosphate acetyltransferase (AID 1376);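 note: 0% = complete reaction with vehicle and 100% = reaction without substrate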; details: M. tuberculosis GlmU acetyltransferase enzyme assay;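 tested at 30 µM in the primary screen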
About 530 (0.24%) of roughly 220,000 compounds were called active. Cut-off read from the data, not from the text of the source: active = inhibition above about 13%; inconclusive = no clear call, values can overlap the other calls; inactive = below that. The list comes from a sample in which actives are over-represented; it also holds close analogues and randomly drawn compounds. Measured potencies and affinities stand elsewhere.
Outcomes: active, inactive

• COc1ccccc1C(=O)O/N=C(\N)c1ccccn1 = inactive
• COc1ccccc1OCC(O)Cn1c(Br)nc2c1c(=O)[nH]c(=O)n2C (stereo not drawn) = active
• Cc1cc(C(=O)CSc2n[nH]c(N)n2)c(C)n1-c1ccc(F)cc1 = active
• Cc1ccccc1Nc1nc(N)nc(COC(=O)c2ccccc2)n1 = inactive
• Cc1ccccc1OCC(O)Cn1c(Br)nc2c1c(=O)[nH]c(=O)n2C (stereo not drawn) = inactive
• CCc1ccccc1Nc1nc(N)nc(COC(=O)c2cccn2C)n1 = active
• CC12CCC(C(=O)NCc3ccccc3Cl)(OC1=O)C2(C)C (stereo not drawn) = inactive
• COc1cc(OC)cc(C(=O)O/N=C(\N)c2ccccn2)c1 = inactive
• CCN1CCN(CCC2Oc3cc([N+](=O)[O-])ccc3NC2=O)CC1 (stereo not drawn) = inactive
• CC(C)Cn1c(-c2csc(C(C)C)c2)n[nH]c1=S = inactive
• Cc1cc(Cl)ccc1OCC(=O)OCC(=O)Nc1ccc(F)c([N+](=O)[O-])c1 = inactive
• Cn1c(=O)[nH]c(=O)c2c1nc(SCCO)n2CC(O)COc1ccccc1 (stereo not drawn) = inactive
• Cc1cc(C(=O)CSc2n[nH]c(N)n2)c(C)n1-c1ccccc1 = inactive
• CCc1ccc2oc(C(=O)Nc3ccc(S(N)(=O)=O)cc3)c(C)c2c1 = inactive
• Cn1nnc(CC[N+](C)(C)C)n1 = inactive
• CCCNC(=O)Nc1ccsc1C(=O)OC = inactive
• O=C(Nc1cccc(S(=O)(=O)N2CCOCC2)c1)c1ccc(Cl)c([N+](=O)[O-])c1 = inactive
• CCCCn1c(-c2csc(C(C)C)c2)n[nH]c1=S = inactive
• COc1ccccc1Nc1nc(N)nc(CN2CCOCC2)n1 = inactive
• CCOC(=O)C1=C(c2ccccc2)NC(SCC(=O)NC2CCCCC2)=C(C#N)C1c1ccco1 (stereo not drawn) = inactive
• COc1ccc(OCC(O)Cn2c(Br)nc3c2c(=O)[nH]c(=O)n3C)cc1 (stereo not drawn) = inactive
• COc1ccc(/C=C/C(=O)Nc2cc(C(F)(F)F)ccc2Cl)cc1OC = inactive
• CN(CC(=O)Nc1ccc2c(c1)OCO2)S(=O)(=O)c1ccc2c(c1)CCC(=O)N2 = inactive

###

Quick reference: inhibition of the listed items.
molecular target: Bifunctional protein GlmU (Mycobacterium tuberculosis (strain ATCC 25618 / H37Rv)) (UniProt P9WMN3); test: inhibition of mycobacterial GlmU enzyme – biochemical, glucosamine-1-phosphate acetyltransferase (AID 1376);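 note: 0% = complete reaction with vehicle and 100% = reaction without substrate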; conditions: M. tuberculosis GlmU acetyltransferase enzyme assay; hits give high values;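 tested at 30 µM in the primary screen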
Screen size: about 220,000 compounds; about 530 (0.24%) were called active. This is one part of a sample in which actives are shown more often than they occur. Results with a measured potency or affinity are listed apart.
measured_endpoint: inhibition (%)

- O=C(CN(Cc1cccs1)C(=O)CNS(=O)(=O)c1ccc(F)cc1)NCC1CCCO1 (stereo not given): 3.23
- O=C1CCCC2=C1C1c3ccccc3C(=O)N1c1ccc(C(=O)c3ccccc3)cc1N2 (stereo not given): 0.1
- COc1ccc(C2(C)NC(=O)N(CC(=O)NCCC3=CCCCC3)C2=O)cc1OC (stereo not given): -7.87
- CCCNC(=O)c1ccc(Cn2cc(C(F)(F)F)ccc2=O)cc1: 0.72
- CCOc1ccc(C(=O)SC2=NCCS2)cc1: 8.72
- O=C(NCc1ccc(F)cc1)C1CCCN(c2nc3ccsc3c(=O)s2)C1 (stereo not given): 2.37
- CC1Cc2ccccc2N1C(=O)C1CCCN(S(=O)(=O)c2cccc3cccnc23)C1 (stereo not given): -0.65
- O=C(c1ccc([N+](=O)[O-])cc1[N+](=O)[O-])N1CCCC1: 2.34
- N=C1/C(=C/c2cccn2CCOc2ccccc2)C(=O)N=C2SC=C(c3ccccc3)N12: 2.69
- O=C(Nc1cccc(C(=O)N2CCOCC2)c1)c1cccnc1: 2.11
